Assay: Pharmacokinetic study, brain penetrability after oral administration
Format: in vivo
Settings: mouse, plasma; male C57B1/6 mice, oral 10 mg/kg, t=2 h; read-out: concentration in plasma
observable: concentration at 2 h (nM)
Give bare numbers, in nM.

Identify the reported concentration at 2 h for the following entry. CN(CC1CC[N+](C)(Cc2ccccc2)CC1)C(=O)c1cn(Cc2ccccc2Cl)nn1 (stereo not shown)
200
